- System: duodenal peptic ulcer due to acetic acid
- assay.protocol: Effect on peptic ulcer due to acetic acid (duodenal ulcer)
- Type: in vivo, male rats
- condition: 100 mg/kg, oral, 3 times a day for 10 days, versus control, rats
Rate of suppression of ulcer by entry:
Return type: number; implicit unit %.

COc1cc(C2NC(=O)CCS2)cc(OC)c1OC (centres unmarked)
67.1
CC(C)=CCCC(C)=CCCC(C)=CCCC(=O)OCC=C(C)CCC=C(C)C [Positive control, reference compound]
20.0

Given the molecule COc1ccc(C2NC(=O)CCS2)cc1 (centres unmarked) , what is its reported Rate of suppression of ulcer? 82.8

Repeat with COc1ccc(C2NC(=O)CCS2)cc1OC (centres unmarked) 73.6

Input COc1ccccc1C1NC(=O)CCS1 (centres unmarked) 80.2

---

Below is a list of entries, each paired with its recorded log10 Ulcer coefficient value.
- Tested on: peptic ulcer due to pyloric ligation
- assay.protocol: Effect on peptic ulcer due to pyloric ligation
- Assay type: in vivo, male rats
- condition: 100 mg/kg, intraperitoneal, just after pyloric ligation, 15 hours, rats
Hey, these are logged values: log10 of Ulcer coefficient, mm^2 being the unit before logging.

The examples below pair each entry with its known result.
COc1ccccc1C1NC(=O)CCS1 (centres unmarked)
0.38
COc1ccc(C2NC(=O)CCS2)cc1OC (centres unmarked)
0.28
CC(C)=CCCC(C)=CCCC(C)=CCCC(=O)OCC=C(C)CCC=C(C)C [Positive control, reference compound]
1.51
COc1ccc(C2NC(=O)CCS2)cc1 (centres unmarked)
0.30

Okay, now this molecule:
For COc1cc(C2NC(=O)CCS2)cc(OC)c1OC (centres unmarked) , what is its reported log10 Ulcer coefficient? 0.97

---

- Tested on: peptic ulcer due to pyloric ligation
- assay.protocol: Effect on peptic ulcer due to pyloric ligation
- Format: in vivo, male rats
- condition: 100 mg/kg, intraperitoneal, pyloric ligation, versus control, rats
Decide using Rate of suppression of ulcer alone. Strictly below 90: Yes. Equal to or above 90: No.

Examples with answers:
COc1ccccc1C1NC(=O)CCS1 (centres unmarked)
No
COc1ccc(C2NC(=O)CCS2)cc1OC (centres unmarked)
No
CC(C)=CCCC(C)=CCCC(C)=CCCC(=O)OCC=C(C)CCC=C(C)C [Positive control, reference compound]
Yes
COc1cc(C2NC(=O)CCS2)cc(OC)c1OC (centres unmarked)
Yes

Attention now shifts to the item below.
Record COc1ccc(C2NC(=O)CCS2)cc1 (centres unmarked) : is its Rate of suppression of ulcer strictly below 90? No

---

- assay.protocol: Acute toxicity test, oral
- Design: species or system Female ICR-mice
- condition: mouse, in vivo, mortality observed for a week, Litchfield-Wilcoxon
The following molecules are listed with their measured LD50 at 168 h values.

# count of solved cases: 3
COc1cc(C2NC(=O)CCS2)cc(OC)c1OC (stereo not shown)
5400 mg/kg
COc1ccc(C2NC(=O)CCS2)cc1OC (stereo not shown)
> 8000 mg/kg
COc1ccccc1C1NC(=O)CCS1 (stereo not shown)
> 8000 mg/kg

Moving on to the next molecule.
Could you tell me which LD50 at 168 h is on file for COc1ccc(C2NC(=O)CCS2)cc1 (stereo not shown) ? > 8000 mg/kg
